Sourced from ChEMBL document CHEMBL1629474

molecular target: Triosephosphate isomerase, glycosomal (Trypanosoma cruzi); test: Inhibition of Trypanosoma cruzi triosephosphate isomerase at 400 uM after 2 hrs
measurement.type: inhibition (%)
Write it as a number; the unit % goes unstated.

So what inhibition did O=C1C(=Cc2ccc([N+](=O)[O-])cc2)C(=O)N(C2CCCCC2)S(=O)(=O)N1C1CCCCC1 get with Triosephosphate isomerase, glycosomal (Trypanosoma cruzi)?
51

Param item: CCOC(=O)c1nc(-c2ccccc2)ns1
87

Param item: Cc1c(C=O)no[n+]1[O-]
27

Param item: [O-][n+]1onc2ccc(/C=C/c3ccccc3)cc21
66

Param item: O=[N+]([O-])c1ccc2c(c1)c(OCc1ccccc1)nn2CCOCCN1CCN(C/C=C/c2ccccc2)CC1
18

Param item: C=CCNC(=S)N/N=C/C=C/c1ccco1
15

* * *

biological target: Triosephosphate isomerase, glycosomal (Trypanosoma cruzi); assay: Inhibition of Trypanosoma cruzi triosephosphate isomerase at 400 uM after 2 hrs
measurement.type: inhibition (%)
Write it as a number; the unit % goes unstated.

Name the recorded inhibition for [O-][n+]1onc2ccc(C=Cc3ccccc3F)cc21 .
9

Param item: O=C(O)c1ccc(/C=C\c2ccc3no[n+]([O-])c3c2)cc1
6

Param item: O=[N+]([O-])c1ccc2c(c1)[n+]([O-])c1n2CCOC1
14

Param item: O=C(Oc1ccccc1)N1CCN(C/C=C/c2ccccc2)CC1
21

Param item: NC(=O)N/N=C/c1ccc2no[n+]([O-])c2c1
73

Param item: CCCCCCN1C(=O)C(=Cc2ccc([N+](=O)[O-])cc2)C(=O)N(CCCCCC)S1(=O)=O
98

Param item: [O-][N+]1=c2ccc(Br)cc2=[N+]([O-])C12CCCC2
23

Param item: COCCNC(=O)/C=C/c1ccc([N+](=O)[O-])o1
0

Param item: [O-][n+]1onc2ccc(/C=C\[S+]([O-])c3ccccc3)cc21 (stereo unspecified)
69

Param item: O=C(N/N=C/C=C/c1ccc([N+](=O)[O-])o1)Oc1ccccc1
45

Param item: CCOC(=O)c1[nH]c(=O)n(CCc2ccccc2)c1C
0

Param item: Cc1ccc(S(=O)(=O)NCc2ccco2)cc1
8

Param item: Nc1ccc2c(c1)[n+]([O-])c1cc(Cl)ccc1[n+]2[O-]
64

Param item: O=[N+]([O-])c1ccc(/C=N/NC(=S)Nc2ccccc2)s1
100

Param item: CCCCCCNC(=O)N/N=C/c1ccc([N+](=O)[O-])s1
14

Param item: [O-][n+]1onc2ccc(/C=C/c3ccc4nonc4c3)cc21
80

Param item: O=c1oc(-c2ccccc2)ns1
96

Param item: O=C1C(=Cc2ccc([N+](=O)[O-])s2)C(=O)N(CCc2ccccc2)S(=O)(=O)N1CCc1ccccc1
82

Param item: Cc1c(CNc2cccc3ccccc23)no[n+]1[O-]
41

Param item: Cc1n(O)c2ccc(Br)cc2[n+]1[O-]
4

Param item: O=C(c1ccc2no[n+]([O-])c2c1)N1CCOCC1
7

Param item: O=Cc1cccc(OCCCN2C(=O)c3ccccc3C2=O)c1
0

Param item: O=C1C(=Cc2ccc([N+](=O)[O-])cc2)C(=O)N(Cc2ccccc2)S(=O)(=O)N1Cc1ccccc1
74

Param item: CC1(C)[N+]([O-])=c2ccc(CN3CCN(C/C=C/c4ccccc4)CC3)cc2=[N+]1[O-]
31

Param item: CSc1ccc(/C=C/C(=O)c2ccccc2)cc1
14

Param item: CCCCNC(=O)N/N=C/c1ccc([N+](=O)[O-])o1
0

Param item: Nc1ccc(-c2ccccc2)cc1[N+](=O)[O-]
93

Param item: NC(=O)N/N=C/c1ccc(OCc2ccc3no[n+]([O-])c3c2)cc1
82

Param item: O=[N+]([O-])c1ccc2c(c1)c(OCc1ccccc1)nn2CCCCCN1CCCCC1
0

Param item: O=C(N/N=C/c1ccc([N+](=O)[O-])s1)N1CCOCC1
5

Param item: [O-][n+]1onc2ccc(/C=C\c3ccccc3)cc21
0

Param item: CC1[N+]([O-])=c2ccc(Cc3ccccc3)cc2=[N+]1[O-] (stereo unspecified)
25

Param item: [O-][n+]1onc2ccc(CSCCO)cc21
0

Param item: Cc1ccc2c(c1)=[N+]([O-])C1(CCCC1)[N+]=2[O-]
27

Param item: O=C1C(=Cc2ccc([N+](=O)[O-])o2)C(=O)N(Cc2ccccc2)S(=O)(=O)N1Cc1ccccc1
82

Param item: O=S(=O)(c1ccccc1)c1no[n+]([O-])c1S(=O)(=O)c1ccccc1
93

Param item: Cc1nnc[n+]([O-])c1/C=C/c1ccc2c(c1)OCO2
40

Param item: O=C(Cn1ccnc1[N+](=O)[O-])NCc1ccccc1
18

Param item: CCNC(=S)N/N=C/c1ccc([N+](=O)[O-])o1
3

Param item: COc1ccc(C(=O)/C=C/c2ccc3no[n+]([O-])c3c2)cc1
45

Param item: [O-][n+]1onc2ccc(/C=N/N=C/c3ccccc3O)cc21
24

Param item: COC(=O)N/N=C/c1ccc([N+](=O)[O-])o1
0

Param item: COCCNC(=O)N/N=C/c1ccc2no[n+]([O-])c2c1
3

Param item: O=C(/C=C/c1ccc([N+](=O)[O-])o1)NCCCl
13

Param item: Cc1ccc2no[n+]([O-])c2c1
8

Param item: N#Cc1c2ccccc2[n+]([O-])n1-c1cccc2ccccc12
16
